Measured melting point accompanies every entry in the list below.

As a guide, the following entries are already answered.
COMPOUND	RECORDED_RESULT
CC(=O)/C(=N/O[C@H]1CC[C@H](C(=O)N(C)C)CC1)C(=O)OC(C)(C)C	109 to 110 °C
CC(C)(C)OC(=O)NC1(C(=O)NCC(F)(F)F)CC1	166 to 167 °C
CC(=O)NCC1CN=C(c2cc3cccc(N(C)S(=O)(=O)c4cccs4)c3[nH]2)S1 (centres undefined)	212 to 213 °C

Turning to the following compound.
## Input Bench note: what melting point did COc1ccccc1N1CCN(CCCCN2CCN(c3cccc(Cl)c3)C2=O)CC1 show?
## Output 87 to 89 °C

---

Parameter: melting point. Scope: all listed entries.

MOLECULE	melting point
c1ccc(Oc2nnns2)cc1	35 to 36 °C
O=C(O)CC1(CCCCCCCCCCC2(C(=O)O)CC2)CCC1	62 to 63.9 °C
NC(=O)CNC(=O)c1cccc(-c2cccc3cc(Cc4cccc(C(F)(F)F)c4)sc23)c1F	135 to 136 °C
CSC(Oc1cc(I)c2ncc(Br)cc2c1)C(=O)NC(C)(C)C (stereo not given)	171 to 172 °C
CCOC(=O)c1cc2c([nH]1)c(N(C)S(=O)(=O)c1cccs1)cn2CC	122 °C

## Input // melting point lookup, key: OC1(F)OC(F)(F)C1(F)F (stereo not given)
## Output 90 to 91 °C

## Input Data request, read-out melting point, for CC1=C(C(=O)OC(C)C)C(c2cccc([N+](=O)[O-])c2)N(C(=O)NCc2ccccc2)C(=O)N1 (stereo not given)
## Output 184 to 185 °C

## Input What does the data say about its melting point? Entry: Cc1cc2c(-c3ccccc3Cl)c(N)c(=O)n(C)c2cc1C
## Output 242 to 243 °C

## Input Look up melting point for this molecule: CCc1cccc(Nc2ncnc3cc(OCCOC)c(OCCOC)cc23)c1
## Output 72 to 74 °C

## Input Can you look up the measured melting point of COc1ccc(Cl)c(Oc2c(C)nc(N3CCOCC3)nc2Cl)c1 for me?
## Output 134 °C

## Input Endpoint output: melting point of CC1=CC(c2cccc(OC(F)(F)F)c2)C2=C(CCCC2=O)N1 (stereo not given) . Value?
## Output 144 to 146 °C

---

// values below are reported melting point

Solved entries:
COMPOUND	RECORDED_RESULT
Nc1cccc(Oc2cc(Oc3cccc(N)c3)cc(C(F)(F)F)c2)c1	98 to 98.6 °C
COc1ccc2c(c1)C(=O)N(c1ccc3ncccc3c1)C2	194 to 197 °C
C=C(c1cc(Cl)ccc1N1CCCCC1)C(C(N)=O)c1ccc(C(=O)OCC)cc1 (stereo not given)	142 to 145 °C
COc1ccc2ccn3c(C(F)(F)F)nnc3c2c1	152 to 154 °C
CN(C)CCCCOc1ccc2c(=O)cc(-c3ccccc3)oc2c1	95 to 96 °C

## Input What does the record list as melting point for CCC1(c2ccc(COc3ccc(CO)c(CO)c3)s2)OCCO1 ?
## Output 78 to 80 °C

## Input Entry Cc1nc2c(c3c1[nH]c1ccc(Cl)cc13)C(=O)CC(C)(C)C2 has what melting point?
## Output 244 to 246 °C

## Input Tell me the measured melting point of COc1cc(COc2nn(C)cc2C=O)ccc1OCc1nc(-c2ccccc2)oc1C , please.
## Output 123 to 124 °C

## Input Look up melting point: COc1ccc(O)c(C2(OC)Sc3ccccc3N(C)C2=O)c1 (stereo not given)
## Output 135 to 136 °C

## Input Quick one: melting point for CO/C(=C\C=C\c1cc2ccccc2s1)C(=O)NC1CC(C)(C)N(C)C(C)(C)C1 ?
## Output 240 °C
